Assay: probe aNog binding to arrayed compounds – biochemical, biotinylated probe, 635/667 nm fluorescence, primary screen (AID 1115);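 further: probe is biotinylated aNog protein used at 0.15 µg/mL for 1 h at 4 C; z-score combines 667 nm fluorescence of each spot with its signal to noise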
Conditions: small-molecule microarray, higher = more signal
Each entry gets No if its composite z-score stays under 0.2, and Yes if its composite z-score is 0.2 or above.

compound | label value
COc1ccc(C(=O)Nc2ccc(CN3C(=O)[C@@]4(O[C@@H](CC(=O)N5Cc6ccccc6C[C@H]5CO)[C@H]([Si](C)(C)c5ccc(OC)cc5)[C@H]4C)c4ccccc43)cc2)cc1 | No
O=C1O[C@H](c2ccccc2)[C@H](c2ccccc2)N2[C@H]1[C@@H](C(=O)N1CCCCCCC1)[C@]1(C(=O)Nc3ccccc31)[C@H]2c1ccc(O)cc1 | Yes
CC(C)=CCCC(C)=CC(O)C1C=CC2C(=O)N(c3ccccc3)C(=O)C2N1Nc1ccc([N+](=O)[O-])cc1 (stereo unspecified) | Yes
COCCOC(=O)N1C(=O)[C@@]2(c3cc(C#CC4(O)CCCCCC4)ccc31)[C@H](C(=O)N1CCN(c3ncccn3)CC1)[C@H]1C(=O)O[C@H](c3ccccc3)[C@H](c3ccccc3)N1[C@@H]2c1ccc(O)cc1 | No
NC(=O)NCC#Cc1ccc2c(c1)[C@]1(C(=O)N2)[C@H](c2ccc(OCCO)cc2)N2[C@H](c3ccccc3)[C@H](c3ccccc3)OC(=O)[C@H]2[C@@H]1C(=O)N1CCCCCCC1 | Yes
C/C=C/[C@@H](CCn1cc([C@H](O)c2ccccc2)nn1)[Si](C)(C)c1ccc(OC)cc1 | No
Cc1ccc(-c2cccc(=O)o2)cc1 | No
Cc1ccc(S[C@]2(C(=O)NCC(C)C)CC(=O)N(C3CCCCC3)[C@@H]2c2ccc(CO)cc2I)cc1 | No
O=C1O[C@H](c2ccccc2)[C@H](c2ccccc2)N2[C@H]1[C@@H](C(=O)N1CCN(c3ncccn3)CC1)[C@]1(C(=O)Nc3ccc(C#CCCO)cc31)[C@H]2c1ccc(OCCO)cc1 | Yes
C[C@H]1ON(c2ccccc2)[C@@H](c2ccccc2)[C@@H]1C(=O)N1C(=O)OC[C@@H]1c1ccccc1 | No
CN(C)CCCCCCNC(=O)[C@@H]1C[C@@H]2C(=O)NCC(=O)N2[C@@H]1c1ccc(O)cc1 | No
C=CCOC(=O)[C@H]1[C@@H]2C(=O)O[C@@H](c3ccccc3)[C@@H](c3ccccc3)N2[C@@H](c2ccc(OCCOC(=O)[C@H]3C[C@H]4C(=O)N[C@@H](CCCCN(C)C)C(=O)N4[C@H]3c3ccc(O)cc3)cc2)[C@]12C(=O)Nc1ccccc12 | No
C=C(CCCC)/C(=C/C[C@H](OC(=O)c1ccncc1)c1ccc(CO)o1)c1cc(C(=O)OC)ccc1OC | Yes
OCc1ccc(-c2cc[n+](Cc3cccc(OC(F)(F)F)c3)cc2)cc1 | Yes
O=C1N(Cc2ccccc2)c2ccccc2[C@H]2OC(c3ccc(OCCCO)cc3)=N[C@@]12CCS(=O)(=O)c1ccccc1 | Yes
COCCCNC(=O)[C@]1(Cc2ccccc2)N=C(c2ccc(OCCCO)cc2)O[C@@H]1c1ccccc1N=[N+]=[N-] | Yes
